# Measured target: UniProt P34972
# Sequence (P34972 whole entry): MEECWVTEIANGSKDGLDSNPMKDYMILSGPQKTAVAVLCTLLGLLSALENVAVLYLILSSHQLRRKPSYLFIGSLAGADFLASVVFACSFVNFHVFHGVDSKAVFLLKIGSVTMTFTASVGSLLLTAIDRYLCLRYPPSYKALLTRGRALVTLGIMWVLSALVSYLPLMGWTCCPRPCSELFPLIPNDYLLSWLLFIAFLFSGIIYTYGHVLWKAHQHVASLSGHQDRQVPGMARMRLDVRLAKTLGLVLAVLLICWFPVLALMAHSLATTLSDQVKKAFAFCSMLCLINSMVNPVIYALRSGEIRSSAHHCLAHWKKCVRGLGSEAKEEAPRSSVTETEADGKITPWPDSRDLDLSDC
# Measurement protocol: CB-2 in vitro cAMP (HTRF) assay
# Run parameters: HEK cells, cAMP HTRF, 250 nM forskolin; mean where tested more than once; read-out: CB2 HEK_cAMP EC50
pEC50: −log10 of the molar value.
Attribute measured: pEC50

>>> df
                                   compound  attribute_measured  numeric_value
0  CCc1nc2ccc(C(c3ccc(Cl)cc3)c3ccc(Cl)cc3)cc2n1CCc1ccc(C(F)(F)F)cc1               pEC50           5.56

A: OC(c1ccc(Cl)cc1)(c1ccc2ncn(CCc3cccc(Cl)c3)c2c1)c1nccs1 (stereo not shown)
B: NC(=O)c1ccc(N2CCC(n3c(C4CC4)nc4ccc(C(c5ccc(Cl)cc5)c5ccc(Cl)cc5)cc43)CC2)cc1
Task: Between the entries labelled A and B , which has a larger pEC50 value on record? Identify your selection by its label.
Result: B
